Recorded values, source paper PMC9090415.

Biological target: P. falciparum apicoplast DNA polymerase (Pf-apPOL) (Plasmodium falciparum)
Sequence (Q8ILY1 entry or part of it): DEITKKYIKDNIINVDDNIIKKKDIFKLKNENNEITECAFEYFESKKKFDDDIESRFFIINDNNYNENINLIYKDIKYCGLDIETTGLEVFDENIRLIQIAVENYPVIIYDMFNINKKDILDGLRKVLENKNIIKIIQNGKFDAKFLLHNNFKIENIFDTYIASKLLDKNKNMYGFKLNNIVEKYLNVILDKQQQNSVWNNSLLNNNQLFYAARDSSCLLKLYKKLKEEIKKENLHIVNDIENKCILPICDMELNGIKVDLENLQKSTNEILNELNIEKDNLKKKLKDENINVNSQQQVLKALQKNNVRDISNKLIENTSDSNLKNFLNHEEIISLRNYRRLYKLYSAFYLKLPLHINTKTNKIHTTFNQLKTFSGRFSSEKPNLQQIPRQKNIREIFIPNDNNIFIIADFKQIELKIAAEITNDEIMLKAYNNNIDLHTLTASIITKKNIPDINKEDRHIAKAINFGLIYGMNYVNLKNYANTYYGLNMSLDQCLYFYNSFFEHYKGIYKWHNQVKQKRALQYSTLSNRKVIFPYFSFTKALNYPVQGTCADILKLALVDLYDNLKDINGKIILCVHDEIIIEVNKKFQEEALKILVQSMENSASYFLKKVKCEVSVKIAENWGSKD
Assay: Fluorescence-based high-throughput DNA polymerase assay (molecular beacon), primary screen and dose-response
Format: biochemical
Conditions: DRC-2; 5'; concentration 20
Assign % inhibition Apo pol 5' to each entry below.
Could you give me the number in %? Just the number is fine.

Q: Consider the compound CC1(C)CC(=O)C2=C(C1)OC1=C(C(=O)CC(C)(C)C1)C2c1ccc(O)cc1 [KU0194226] and give its measured % inhibition Apo pol 5'.
Result: 21

Q: May I ask what % inhibition Apo pol 5' has been recorded for CCCc1ccc(Oc2coc3cc(OC)ccc3c2=O)cc1 [KU0193249] ?
Result: 17

Q: May I ask what % inhibition Apo pol 5' has been recorded for Cc1ccc(C)c(CSc2nc(C3CCCCC3)c(C#N)c(=O)[nH]2)c1 [Molecule 6] ?
Result: 59

Q: Could you share which % inhibition Apo pol 5' value was measured for CCN1C(=O)C(=Cc2cccc(OC)c2O)SC1=S [Molecule 78, CCN1C(=S)SC(=Cc2cccc(c2O)OC)C1=O] ?
Result: 21
